Would you mind telling me the reported Avg 2 h Coupled Exchange IC50 of each entry?
molecular target: GDP-bound KRAS protein (aa 1-169), containing both G12D and C118A amino acid substitutions (Homo sapiens, UniProt P01116, C118A/G12D); test: KRAS G12D Coupled Nucleotide Exchange Assay; assay type: biochemical; conditions: 2 h compound pre-incubation
Sequence (P01116 1-169 isoform P01116-2 G12D/C118A): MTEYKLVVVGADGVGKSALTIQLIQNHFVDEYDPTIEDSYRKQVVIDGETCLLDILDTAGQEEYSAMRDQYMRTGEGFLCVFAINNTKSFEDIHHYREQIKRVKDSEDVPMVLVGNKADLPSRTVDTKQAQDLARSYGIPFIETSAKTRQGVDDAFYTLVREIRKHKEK
One number for each entry, in nM.

These recorded examples may help you get a feel for the data.
>>> recorded_result("Oc1cc(-c2ccc3c(N4C[C@H]5C[C@@H](C4)N5)nc(OC[C@@]45CCCN4C[C@H](F)C5)nc3c2F)c2ccccc2c1")
7
>>> recorded_result("Oc1cc(-c2c(Cl)cc3c(N4C[C@H]5CC[C@@H](C4)N5)nc(OC[C@@]45CCCN4C[C@H](F)C5)nc3c2F)c2c(F)cccc2c1")
34
>>> recorded_result("CN1C[C@H](F)C[C@H]1COc1nc(N2C[C@H]3C[C@@H](C2)N3)c2ccc(-c3cc(O)cc4ccccc34)c(F)c2n1")
35
>>> recorded_result("Oc1ccc(-c2c(F)cc3c(N4C[C@H]5CC[C@@H](C4)N5)nc(OC[C@@]45CCCN4C[C@H](F)C5)nc3c2F)c2ccccc12")
5

Provide the reported Avg 2 h Coupled Exchange IC50 of each entry below, same order.
1. N#Cc1cc2c(N3C[C@H]4CC[C@@H](C3)N4)nc(OC[C@@]34CCCN3C[C@H](F)C4)nc2c(F)c1-c1cc(O)cc2ccccc12
2. Oc1cc(-c2c(F)cc3c(N4C[C@H]5CCC[C@@H](C4)N5)nc(OC[C@@]45CCCN4C[C@H](F)C5)nc3c2F)c2ccccc2c1

2
4

====

target: GDP-bound KRAS protein (aa 1-169), containing both G12D and C118A amino acid substitutions (Homo sapiens, UniProt P01116, C118A/G12D); assay: KRAS G12D Coupled Nucleotide Exchange Assay; format: biochemical; conditions: 2 h compound pre-incubation
# binarize Avg 2 h Coupled Exchange IC50: threshold 4 nM inclusive, high side Criterion met, low side Criterion not met

Some solved entries appear below for comparison.
>>> classification("Nc1ccc(C(F)(F)F)c(-c2ccc3c(N4C[C@H]5CC[C@@H](C4)N5)nc(OC[C@@]45CCCN4C[C@H](F)C5)nc3c2F)n1 [Example 223]")
"Criterion met"
>>> classification("Nc1ccc(C2CC2)c(-c2ccc3c(N4C[C@H]5CC[C@@H](C4)N5)nc(OC[C@@]45CCCN4C[C@H](F)C5)nc3c2F)n1 [Example 224]")
"Criterion met"
>>> classification("Cc1c(-c2cc(O)cc3ccccc23)ccc2c(N3CC4CCC(C3)N4)nc(OCC34CCCN3C[C@H](F)C4)nc12 (stereo in doubt) [Example 32]")
"Criterion not met"
>>> classification("O=c1cc(-c2ccc3c(N4C[C@H]5CC[C@@H](C4)N5)nc(OC[C@@]45CCCN4C[C@H](F)C5)nc3c2F)c2ccccc2[nH]1 [Example 222]")
"Criterion met"

Continue with the molecule presented below.
Please indicate if the recorded Avg 2 h Coupled Exchange IC50 for Cc1c(-c2cc(O)cc3cccc(Cl)c23)ccc2c(N3C[C@H]4CC[C@@H](C3)N4)nc(OC[C@@]34CCCN3C[C@H](F)C4)nc12 [Example 57] meets or exceeds 4 nM.
Criterion not met

====

molecular target: His-tagged KRAS G12D protein (Homo sapiens, UniProt P01116, G12D); assay: KRAS G12D TR-FRET Assay
Sequence (P01116 1-188 isoform P01116-2 G12D): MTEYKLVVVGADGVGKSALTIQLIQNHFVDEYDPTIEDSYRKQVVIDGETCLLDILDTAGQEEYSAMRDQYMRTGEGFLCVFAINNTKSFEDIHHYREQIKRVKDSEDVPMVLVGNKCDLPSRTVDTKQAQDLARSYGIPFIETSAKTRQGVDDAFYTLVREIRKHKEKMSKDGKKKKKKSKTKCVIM
ATTRIBUTE MEASURED: pIC50
Give bare numbers, as −log10 of the molar value.

These recorded examples may help you get a feel for the data.
>>> recorded_result("CCc1cccc2cccc(-c3c(Cl)cc4c(N5C[C@H]6CC[C@@H](C5)N6)nc(OC[C@@]56CCCN5C[C@H](F)C6)nc4c3F)c12")
7.42
>>> recorded_result("Nc1cc(-c2c(F)cc3c(N4C[C@@H]5CC[C@H]4CN5)nc(OC[C@@]45CCCN4C[C@H](F)C5)nc3c2F)c2ccccc2c1")
7.89
>>> recorded_result("Nc1cc(Cl)c(C(F)(F)F)c(-c2ccc3c(N4C[C@H]5CC[C@@H](C4)N5)nc(OC[C@@]45CCCN4C[C@H](F)C5)nc3c2F)n1")
8.70
>>> recorded_result("CCc1c(F)ccc2cc(O)cc(-c3ccc4c(N5C[C@@H]6CC[C@](F)(C5)N6)nc(OC[C@@]56CCCN5C[C@H](F)C6)nc4c3F)c12")
8.52
>>> recorded_result("CCc1c(F)ccc2cc(O)cc(-c3c(F)cc4c(N5C[C@H]6CC[C@@H](C5)N6)nc(OCC56CCCN5CC(F)(F)C6)nc4c3F)c12 (stereo partly drawn)")
8.52

We now examine a further compound.
Send back His-tagged KRAS G12D protein (Homo sapiens, UniProt P01116, G12D) pIC50 of `CCc1c(F)ccc2cc(O)cc(-c3cc4nc(OC[C@@]56CCCN5C[C@H](F)C6)nc(N5C[C@H]6CC[C@@H](C5)N6)c4cc3F)c12` only.
8.52

====

Would you mind telling me the reported pIC50 of each entry?
target: His-tagged KRAS G12D protein (Homo sapiens, UniProt P01116, G12D); experiment: KRAS G12D TR-FRET Assay
Give bare numbers, as −log10 of the molar value.

>>> recorded_result("CN1C[C@H](F)C[C@H]1COc1nc(N2[C@@H]3CNC[C@H]2COC3)c2ccc(-c3cc(O)cc4ccccc34)c(F)c2n1")
7.31
>>> recorded_result("Cc1c(-c2cc(O)cc3ccccc23)ccc2c(N3[C@@H]4CC[C@H]3CNC4)nc(OC[C@@]34CCCN3C[C@H](F)C4)nc12")
7.33
>>> recorded_result("Fc1c(-c2cccc3cccc(Cl)c23)ccc2c(N3[C@@H]4CC[C@H]3CNC4)nc(OC[C@@]34CCCN3C[C@H](F)C4)nc12")
7.51
>>> recorded_result("CCc1cccc2cc(O)cc(-c3c(F)cc4c(N5C[C@H]6CC[C@@H](C5)N6)nc(OC[C@@]56CCCN5C[C@H](F)C6)nc4c3F)c12")
8.52
>>> recorded_result("C#Cc1cccc2cc(O)cc(-c3c(F)cc4c(N5C[C@H]6CC[C@@H](C5)N6)nc(OC[C@@]56CCCN5C[C@H](F)C6)nc4c3F)c12")
8.40

Provide the reported pIC50 of each entry below, same order.
1. C=C(C)c1ccc2[nH]ncc2c1-c1ccc2c(N3C[C@H]4CC[C@@H](C3)N4)nc(OC[C@@]34CCCN3C[C@H](F)C4)nc2c1F
2. Fc1c(-c2cc(C(F)F)cc3ccccc23)ccc2c(N3C[C@H]4CC[C@@H](C3)N4)nc(OC[C@@]34CCCN3C[C@H](F)C4)nc12
3. Oc1cc(Cl)c(C2CC2)c(-c2ccc3c(N4C[C@H]5CC[C@@H](C4)N5)nc(OC[C@@]45CCCN4C[C@H](F)C5)nc3c2F)c1
4. Oc1ccc(Cl)c(-c2ccc3c(N4[C@@H]5CC[C@H]4CNC5)nc(OC[C@@]45CCCN4C[C@H](F)C5)nc3c2)c1F

1. 7.38
2. 7.24
3. 8.70
4. 5.33

Provide the reported pIC50 of each entry below, same order.
1. C#Cc1c(F)ccc2cc(O)cc(-c3ccc4c(N5[C@@H]6CC[C@H]5CNC6)nc(OC[C@@]56CCCN5C[C@H](F)C6)nc4c3F)c12
2. Cc1c(-c2cc(O)cc3ccc(F)c(F)c23)ccc2c(N3C[C@@H]4CC[C@H]3CN4)nc(OC[C@@]34CCCN3C[C@H](F)C4)nc12
3. CCc1c(F)ccc2cc(O)cc(-c3ccc4c(N5[C@@H]6CC[C@H]5CNC6)nc(OC[C@@]56CCCN5C[C@H](F)C6)nc4c3C)c12
4. Oc1cc(-c2ccc3c(N4C[C@H]5CC[C@@H](C4)N5)nc(OC[C@@]45CCCN4C[C@H](F)C5)nc3c2F)c2c(F)c(F)ccc2c1
5. Oc1cc(-c2c(Cl)cc3c(N4C[C@H]5CC[C@@H](C4)N5)nc(OC[C@]45CCCN4C[C@H](F)C5)nc3c2F)c2ccccc2c1
6. CN1C[C@H](F)C[C@H]1COc1nc(N2C[C@H]3C[C@@H](C2)N3)c2cc(F)c(-c3cc(O)cc4ccccc34)c(F)c2n1
7. CCc1c(F)ccc2cc(O)cc(-c3ccc4c(N5C[C@H]6COC[C@@H](C5)N6)nc(OC[C@@]56CCCN5C[C@H](F)C6)nc4c3F)c12

[8.70, 7.03, 7.12, 8.70, 8.52, 7.24, 8.52]

Provide the reported pIC50 of each entry below, same order.
1. Oc1cc(-c2ccc3c(N4C[C@H]5CC[C@@H](C4)N5)nc(OC[C@@]45CCCN4C[C@H](F)C5)nc3c2F)c2c(Cl)cccc2c1
2. Oc1cc(-c2c(F)cc3c(N4C[C@H]5C[C@@H](C4)N5)nc(OC[C@@]45CCCN4C[C@H](F)C5)nc3c2F)c2ccccc2c1
3. Cc1c(-c2cc(O)cc3ccc(F)c(F)c23)ccc2c(N3C[C@H]4CC[C@@H](C3)N4)nc(OC[C@@]34CCCN3C[C@H](F)C4)nc12
4. CCc1cccc2cc(O)cc(-c3ccc4c(N5[C@@H]6CC[C@H]5CNC6)nc(OC[C@@]56CCCN5C[C@H](F)C6)nc4c3C)c12
5. Oc1cc(-c2ccc3c(N4C[C@H]5CC[C@@H](C4)N5)nc(OC[C@@]45CCCN4C[C@H](F)C5)nc3c2F)c2c(F)cccc2c1
6. CN1CCC[C@H]1CCOc1nc(N2[C@@H]3CNC[C@H]2COC3)c2ccc(-c3cc(O)cc4ccccc34)c(F)c2n1

1: 8.30; 2: 8.15; 3: 8.22; 4: 8.30; 5: 8.70; 6: 6.34

Provide the reported pIC50 of each entry below, same order.
1. Cc1c(-c2cc(O)cc3cccc(Cl)c23)ccc2c(N3C[C@H]4CC[C@@H](C3)N4)nc(OC[C@@]34CCCN3C[C@H](F)C4)nc12
2. CCc1c(F)ccc2cc(O)cc(-c3c(F)cc4c(N5C[C@@H]6CC[C@H]5CN6)nc(OC[C@@]56CCCN5C[C@H](F)C6)nc4c3F)c12

1: 8.30; 2: 8.30
